Assay: gradient 5% acetonitrile 3 min, to 50% in 2 min, to 85% in 15 min, held 3 min, 100 µL/min
Conditions: column: Zorbax Extend-C18 2.1 x 50 mm; eluents: water / acetonitrile, 0.1% formic acid
metric: RP-LC retention time (s)
Answer with a number only, understood to be in s.

CCn1ccc2cc(S(=O)(=O)N3CCC(C(=O)NC(C)Cc4ccco4)CC3)ccc21 (stereo not drawn)	905

Measured RP-LC retention time of O=C(CSc1ncnc2nc[nH]c12)Nc1ccccc1C(F)(F)F : 618

Measured RP-LC retention time of Cc1nc2ccn(Cc3ccco3)c(=O)c2cc1C(=O)NCCCN1CCOCC1 : 578

Measured RP-LC retention time of Cc1ccc(-c2nc3cnccn3c2Nc2cccc(C(F)(F)F)c2)cc1 : 972

Measured RP-LC retention time of COc1ccc(N2CCN(C(=O)c3cn(-c4cc(N5CCCCC5)ncn4)cn3)CC2)cc1 : 817

Measured RP-LC retention time of O=C(CCn1nnc2cc(-c3noc(-c4ccc(F)cc4)n3)ccc21)N1CCOCC1 : 849

----------
Test: gradient 5% acetonitrile 3 min, to 50% in 2 min, to 85% in 15 min, held 3 min, 100 µL/min
Conditions: column: Zorbax Extend-C18 2.1 x 50 mm; eluents: water / acetonitrile, 0.1% formic acid
metric: RP-LC retention time (s)
Answer with a number only, understood to be in s.

// worked examples, RP-LC retention time included
CCCc1ccc(S(=O)(=O)N2CCN(c3cnn4c(C5CC5)nnc4c3)CC2)cc1	856
CCC(CO)NCc1ccc(-c2cccc(Cl)c2C)o1 (centres undefined)	683
Cc1ccc(NC(=O)N2CCCC2c2nc(-c3ccccc3)no2)cc1C (centres undefined)	1030

Measured RP-LC retention time of COc1cc(C(=O)Nc2sc3c(c2C(N)=O)CCC(C)C3)cc(OC)c1OC (centres undefined) : 1010

Measured RP-LC retention time of Cc1cc(N2CCCCC2)nc(N2CCN(S(=O)(=O)c3ccc(Br)cc3)CC2)n1 : 847

Measured RP-LC retention time of CCN1CCn2cc(S(=O)(=O)Nc3ccc(OC)cc3C)cc2C1=O : 716

Measured RP-LC retention time of Cc1cc(=O)n(CC(=O)Nc2ccc(Br)cc2)c(N2CCCC2)n1 : 666

Measured RP-LC retention time of Cn1c(=O)n(CC(=O)N2CCCCCC2)c(=O)c2cnc(-c3ccc(Cl)cc3)nc21 : 1120

Measured RP-LC retention time of COc1ccc(Cn2c(C)c(CNCc3ccccn3)c(C(=O)O)c2C)cc1 : 690

----------
Experiment: gradient 5% acetonitrile 3 min, to 50% in 2 min, to 85% in 15 min, held 3 min, 100 µL/min
Conditions: column: Zorbax Extend-C18 2.1 x 50 mm; eluents: water / acetonitrile, 0.1% formic acid
Note to self: use rule met only for RP-LC retention time readings below 900 s; a reading exactly at 900 s still gets rule not met.

CC(=O)Nc1ccc(C(=O)NC2CCN(c3cc(N4CCCC4)cnn3)C2)cc1 (stereo not drawn)	rule met
C=CCN1C(=O)COc2ccc(-c3csc(NC(=O)c4cccc(Br)c4)n3)cc21	rule not met
C[C@@H]1OC(Oc2ccccc2-c2cc(=O)c3c(O)cc(O)c([C@@H]4O[C@H](CO)[C@@H](O)[C@H](O)[C@H]4O)c3o2)[C@H](O)[C@H](O)[C@H]1O (stereo partly drawn)	rule met
NS(=O)(=O)c1cccnc1Nc1ccc(Oc2ccccc2)cc1	rule not met
O=C(Cc1csc(-c2ccccc2)n1)Nc1nc(-c2cccc(Br)c2)cs1	rule not met
O=C(NCCc1csc(C2CCCN(C(=O)C3CCCO3)C2)n1)C1CC1 (stereo not drawn)	rule met

Is the reported RP-LC retention time for Cc1nnc(-c2ccc3ccn(CC(=O)NCC(C)c4ccccc4)c3c2)o1 (stereo not drawn) strictly below 900 s?
rule met

----------
Test: gradient 5% acetonitrile 3 min, to 50% in 2 min, to 85% in 15 min, held 3 min, 100 µL/min
Conditions: column: Zorbax Extend-C18 2.1 x 50 mm; eluents: water / acetonitrile, 0.1% formic acid
Catalogue of molecules with associated RP-LC retention time
# answer = value followed by unit

// worked examples, RP-LC retention time included
CN(C)c1ccc(-c2nc3cnccn3c2Nc2ccc(Br)cc2)cc1	894 s
O=C(COc1ccccc1)N1CC2CN(S(=O)(=O)c3ccc(F)cc3)CC(C1)O2	846 s
Cc1nn(CC(=O)NC2CC2)c(=O)c2c(-n3cccc3)n(-c3cccc(F)c3)nc12	828 s
CCCNC(=O)C1CCCN(c2ccc(SCC(=O)Nc3ccc(F)c(F)c3)nn2)C1 (stereo not given)	662 s

Measured RP-LC retention time of c1ccc2c(c1)CCN(c1nccnc1OC1CCNC1)C2 (stereo not given) : 649 s

----------
Experiment: gradient 5% acetonitrile 3 min, to 50% in 2 min, to 85% in 15 min, held 3 min, 100 µL/min
Conditions: column: Zorbax Extend-C18 2.1 x 50 mm; eluents: water / acetonitrile, 0.1% formic acid
metric: RP-LC retention time (s)
Answer with a number only, understood to be in s.

O=C(CCn1nnc2ccccc2c1=O)NCC1CCS(=O)(=O)C1 (centres undefined)	585
O=C1CC(C(=O)N2CCc3ccccc32)CN1CCc1c[nH]c2ccc(Cl)cc12 (centres undefined)	880

Measured RP-LC retention time of Cc1ccc(CCNC(=O)c2ccc3c(c2)N(C)C(=O)C2CCCCN32)cc1 (centres undefined) : 947

Measured RP-LC retention time of CC1CCCCN1CCCNC(=O)c1cc(S(=O)(=O)N2CCCC2)ccc1Cl (centres undefined) : 643

Measured RP-LC retention time of CCc1ccc(-c2cc(C(=O)N3CCN(C)CC3)[nH]n2)cc1 : 620

Measured RP-LC retention time of O=C(Nc1ccc(C(F)(F)F)cc1)NC1CCN(c2ccccc2)C1=O (centres undefined) : 912

Measured RP-LC retention time of COCC(O)Cn1ccnc1[N+](=O)[O-] (centres undefined) : 609

Measured RP-LC retention time of Cc1ccc(-c2cc3c(N4CCCC(C(=O)NCC5CC5)C4)nccn3n2)c(C)c1 (centres undefined) : 863

Measured RP-LC retention time of CCc1nnc(NC(=O)c2ccc(-c3ccccc3Cl)o2)s1 : 906

Measured RP-LC retention time of Cc1cccc(NC(=O)N2CCN(c3nc4ccccc4nc3C(F)(F)F)CC2)c1 : 1120

Measured RP-LC retention time of Cc1ccc(CNc2nc(-c3ccc(Cl)cc3)nc3ccccc23)o1 : 865

Measured RP-LC retention time of COc1ccc(Cl)cc1NC(=O)c1csc(-c2cn(C)c3ncccc23)n1 : 1230

Measured RP-LC retention time of Cc1cc2n(n1)CCCN2C(=O)CCC(=O)N1CCN(c2ccccc2)CC1 : 678

Measured RP-LC retention time of Cc1cc(C(=O)NCC(C)C)c2cc(Cl)ccc2n1 : 784

Measured RP-LC retention time of Cc1sc(-c2cc(C(F)(F)F)on2)cc1S(=O)(=O)N1CCCCC1 : 1210

Measured RP-LC retention time of COc1ccc(OC)c(NC(=O)Cc2csc3nc(-c4cccc(Br)c4)cn23)c1 : 1010

Measured RP-LC retention time of CN(C)C(=O)c1csc(S(=O)(=O)N2CCC(C(=O)NCc3ccc(Cl)cc3)CC2)c1 : 787

----------
Catalogue of compounds with associated RP-LC retention time
Test: gradient 5% acetonitrile 3 min, to 50% in 2 min, to 85% in 15 min, held 3 min, 100 µL/min
Conditions: column: Zorbax Extend-C18 2.1 x 50 mm; eluents: water / acetonitrile, 0.1% formic acid
Answer with a number only, understood to be in s.

// worked examples, RP-LC retention time included
CCn1cc(-c2ccc(C)cc2)cc1C(=O)NCCCN1CCCC1=O	856
COCCN1CCC(N2CCN(C(=O)C3(c4ccccc4)CC3)CC2)C1=O (stereo not given)	542
CCCNC(=O)CCc1nc2ccccc2n(CC(=O)Nc2ccc(OC)c(Cl)c2)c1=O	805
Nc1nc(SCc2ccccc2Cl)c2[nH]cnc2n1	680
CCOC(=O)c1c(C)[nH]c(C)c1S(=O)(=O)NCCCN1CCc2ccccc2C1	651

Measured RP-LC retention time of CC(C)n1cnc(S(=O)(=O)N2CCCC(C(=O)N3CCN(c4ncccn4)CC3)C2)c1 (stereo not given) : 682

----------
Catalogue of compounds with associated RP-LC retention time
Assay: gradient 5% acetonitrile 3 min, to 50% in 2 min, to 85% in 15 min, held 3 min, 100 µL/min
Settings: column: Zorbax Extend-C18 2.1 x 50 mm; eluents: water / acetonitrile, 0.1% formic acid
Answer with a number only, understood to be in s.

// worked examples, RP-LC retention time included
O=C(c1ccc2c(c1)OCO2)N1CCCn2nc(-c3cccs3)cc2C1	796
O=C(NCC(c1cccnc1)N1CCc2ccccc21)C(=O)Nc1ccc2c(c1)OCO2 (centres undefined)	734
COC(=O)c1cnc(N2CCN(c3ccccc3OC)CC2)c2ccccc12	1030

Measured RP-LC retention time of Cc1cccc(-c2noc(-c3nn(CC(=O)NC(C)C)c4ccccc34)n2)c1 : 1090

Measured RP-LC retention time of Cc1cc(N2CCN(C(=O)Nc3ccccc3Cl)CC2)nc(N2CCOCC2)n1 : 637

Measured RP-LC retention time of COC(=O)CC(=O)Nc1cc2c(cc1N1CCOCC1)n(C)c(=O)n2C : 597

Measured RP-LC retention time of CCCn1ccc2oc(C)c(C(=O)N3CCC(N4CCCCC4)CC3)c2c1=O : 590

Measured RP-LC retention time of Cc1cc(C)cc(Nc2nc(C)cc3nn(CC(=O)N4CCOCC4)c(=O)n23)c1 : 601

Measured RP-LC retention time of CC(=O)Nc1ccc(C(=O)N2CCN(c3cc(-c4cccs4)[nH]n3)CC2)cc1 : 641

Measured RP-LC retention time of Cc1cc(OCC(=O)N2CCCC(C)C2)nc(-c2ccc(Cl)cc2)n1 (centres undefined) : 1140

Measured RP-LC retention time of CCCn1c(CCc2cccc(NS(=O)(=O)c3cnn(CC)c3)c2)nc2ccccc21 : 675
